EXPERIMENTAL_TARGET: human serum albumin (human, UniProt P02768 25-609)
TEST_METHOD_NOTES: SPR
MEASUREMENT_NAME: Kd (nM)

Example entries begin here.
Inquiry: For RLuc-F3 (other) MVKQIESKTAFQEALDAAGDKLVVVDFSATGGTPGRRNRWSGPSKMIKPFFHSLSEKYSNVIFLEVDVDDAQDVASEAFCEFCFPFLPTFQFFKKGQKVGEFSGANKEKLEATINELV , write its Kd.
Reply text: 640

Inquiry: For RLuc-H6 (other) MVKQIESKTAFQEALDAAGDKLVVVDFSATDRKPWKTRGWSGPSKMIKPFFHSLSEKYSNVIFLEVDVDDAQDVASEAFGLFSFPLLPTFQFFKKGQKVGEFSGANKEKLEATINELV , write its Kd.
Reply text: 2460

a = mutant TRX protein H6 (HSA binder, purified) (designed binder) MVKQIESKTAFQEALDAAGDKLVVVDFSATDRKPWKTRGWSGPSKMIKPFFHSLSEKYSNVIFLEVDVDDAQDVASEAFGLFSFPLLPTFQFFKKGQKVGEFSGANKEKLEATINELV
b = RLuc-E2 (other) MVKQIESKTAFQEALDAAGDKLVVVDFSATKNEKRDVAEWSGPSKMIKPFFHSLSEKYSNVIFLEVDVDDAQDVASEAFGFFGFPVLPTFQFFKKGQKVGEFSGANKEKLEATINELV
Inquiry: Just tell me: smaller Kd value, a or b ? Pick one; state its label.
Reply text: a

1 = mutant TRX protein E2 (HSA binder, purified) (designed binder) MVKQIESKTAFQEALDAAGDKLVVVDFSATKNEKRDVAEWSGPSKMIKPFFHSLSEKYSNVIFLEVDVDDAQDVASEAFGFFGFPVLPTFQFFKKGQKVGEFSGANKEKLEATINELV
2 = mutant TRX protein F3 (HSA binder, purified) (designed binder) MVKQIESKTAFQEALDAAGDKLVVVDFSATGGTPGRRNRWSGPSKMIKPFFHSLSEKYSNVIFLEVDVDDAQDVASEAFCEFCFPFLPTFQFFKKGQKVGEFSGANKEKLEATINELV
Inquiry: Just tell me: smaller Kd value, 1 or 2 ? Pick one; state its label.
Reply text: 2
